- Test system: Salmonella typhi (ATCC 14028)
- ASSAY_PROTOCOL: Microplate Alamar Blue Assay, Salmonella typhi
- Format: cell-based
- CONDITION_PARAMETERS: Salmonella enterica; 200 μg/mL; NI = No inhibition; read-out: Percentage (%) Inhibition, Slamonella typhi
# inhibition at 200 µg/mL annotations
Give the value in % but do not write % after it.

Past entries and their recorded results:
| STRUCTURE_NOTATION | METRIC_NAME | MEASUREMENT_UNITS | EXPERIMENTAL_RESULT |
| --- | --- | --- | --- |
| Cc1ccc(C(=O)Nc2ccc(S(=O)(=O)Nc3nc(C)cc(C)n3)cc2)cc1 | inhibition at 200 µg/mL | % | 0.65 |
| Cc1cc(C)nc(NS(=O)(=O)c2ccc(NC(=O)c3cccc(Br)c3)cc2)n1 | inhibition at 200 µg/mL | % | 4.26 |
| Cc1cc(C)nc(NS(=O)(=O)c2ccc(NC(=O)c3cccc(C(F)(F)F)c3F)cc2)n1 | inhibition at 200 µg/mL | % | 25.4 |

In the following, a different compound is considered.
Per the record, Cc1cc(C)nc(NS(=O)(=O)c2ccc(NC(=O)c3ccc(F)c(F)c3)cc2)n1 has inhibition at 200 µg/mL of 22.5

====

# melting point annotations

| MOLECULE | melting point |
| --- | --- |
| Cc1cc(C)nc(NS(=O)(=O)c2ccc(NC(=O)C34CCC(C)(C(=O)O3)C4(C)C)cc2)n1 (stereo not drawn) | 254 to 256 °C |
| Cc1cc(C)nc(NS(=O)(=O)c2ccc(NC(=O)c3ccc(Cl)cc3Cl)cc2)n1 | 233 to 236 °C |

Per the record, Cc1cc(C)nc(NS(=O)(=O)c2ccc(NC(=O)c3cccc([N+](=O)[O-])c3)cc2)n1 has melting point of 251 to 253 °C

Per the record, Cc1cc(C)nc(NS(=O)(=O)c2ccc(NC(=O)c3cc(F)cc(F)c3)cc2)n1 has melting point of 237 to 240 °C

Per the record, Cc1cc(C)nc(NS(=O)(=O)c2ccc(NC(=O)C(C)Cl)cc2)n1 (stereo not drawn) has melting point of 256 to 258 °C

Per the record, Cc1cc(C)cc(C(=O)Nc2ccc(S(=O)(=O)Nc3nc(C)cc(C)n3)cc2)c1 has melting point of 216 to 218 °C

====

- System: Pseudomonas aeruginosa (POA 286)
- ASSAY_PROTOCOL: Microplate Alamar Blue Assay, Pseudomonas aeruginosa
- Assay type: cell-based
- CONDITION_PARAMETERS: Pseudomonas aeruginosa; 200 μg/mL; NI = No inhibition; read-out: Percentage (%) Inhibition, Pseudomonas aerugenosa
- Experimental: The anti-bacterial activity of synthesized compound were evaluated by the Microplate Alamar Blue Assay. […] For quantitative analysis, plates were read at 570 nm and 600 nm in Multiskan GOmicroplate spectrophotometer, (Thermo Scientific, USA). The % inhibition of bacterial growth was calculated using below mentioned formula. […]
METRIC_NAME: inhibition at 200 µg/mL (%)
Give the value in % but do not write % after it.

| COMPOUND | ASSAYED_SYSTEM | inhibition at 200 µg/mL [%] |
| --- | --- | --- |
| Cc1cc(C)nc(NS(=O)(=O)c2ccc(NC(=O)c3ccc(Br)cc3)cc2)n1 [Compound 29] | Pseudomonas aeruginosa (POA 286) | 15 |
| Cc1cccc(C(=O)Nc2ccc(S(=O)(=O)Nc3nc(C)cc(C)n3)cc2)c1 [Compound 36] | Pseudomonas aeruginosa (POA 286) | 20.5 |

In the following, a different compound is considered.
Per the record, Cc1cc(C)nc(NS(=O)(=O)c2ccc(NC(=O)C34CCC(C)(C(=O)O3)C4(C)C)cc2)n1 (centres unmarked) [Compound 15] has inhibition at 200 µg/mL of 29.4

====

- Tested on: Pseudomonas aeruginosa (POA 286)
- ASSAY_PROTOCOL: Microplate Alamar Blue Assay, Pseudomonas aeruginosa
- Type: cell-based
- CONDITION_PARAMETERS: Pseudomonas aeruginosa; 200 μg/mL; NI = No inhibition; read-out: Percentage (%) Inhibition, Pseudomonas aerugenosa
# inhibition at 200 µg/mL annotations
Give the value in % but do not write % after it.

Past entries and their recorded results:
| MOLECULE | METRIC_NAME | MEASUREMENT_UNITS | EXPERIMENTAL_RESULT |
| --- | --- | --- | --- |
| Cc1cc(C)nc(NS(=O)(=O)c2ccc(N)cc2)n1 [compound 1, Sulfamethazine, reference compound] | inhibition at 200 µg/mL | % | 8.92 |
| Cc1cc(C)nc(NS(=O)(=O)c2ccc(NC(=O)c3ccc([N+](=O)[O-])cc3)cc2)n1 [Compound 25] | inhibition at 200 µg/mL | % | 6.35 |
| Cc1cc(C)nc(NS(=O)(=O)c2ccc(NC(=O)c3cccc([N+](=O)[O-])c3)cc2)n1 [Compound 13] | inhibition at 200 µg/mL | % | 6.58 |
| Cc1cc(C)cc(C(=O)Nc2ccc(S(=O)(=O)Nc3nc(C)cc(C)n3)cc2)c1 [Compound 38] | inhibition at 200 µg/mL | % | 19 |
| Cc1cc(C)nc(NS(=O)(=O)c2ccc(NC(=O)c3cccc(C(F)(F)F)c3F)cc2)n1 [Compound 14] | inhibition at 200 µg/mL | % | 1.04 |

Per the record, Cc1cc(C)nc(NS(=O)(=O)c2ccc(NC(=O)c3cc(F)cc(C(F)(F)F)c3)cc2)n1 [Compound 8] has inhibition at 200 µg/mL of 4.31

Per the record, Cc1cc(C)nc(NS(=O)(=O)c2ccc(NC(=O)c3cccc(Cl)c3)cc2)n1 [Compound 21] has inhibition at 200 µg/mL of 28

====

# inhibition at 200 µg/mL annotations
- Test system: Salmonella typhi (ATCC 14028)
- ASSAY_PROTOCOL: Microplate Alamar Blue Assay, Salmonella typhi
- Format: cell-based
- CONDITION_PARAMETERS: Salmonella enterica; 200 μg/mL; NI = No inhibition; read-out: Percentage (%) Inhibition, Slamonella typhi

| MOLECULE | ASSAYED_SYSTEM | EXPERIMENTAL_RESULT |
| --- | --- | --- |
| Cc1cc(C)nc(NS(=O)(=O)c2ccc(NC(=O)c3cc(C(F)(F)F)cc(C(F)(F)F)c3)cc2)n1 [Compound 6] | Salmonella typhi (ATCC 14028) | < 0% |
| Cc1cc(C)nc(NS(=O)(=O)c2ccc(NC(=O)c3cc([N+](=O)[O-])cc([N+](=O)[O-])c3)cc2)n1 [Compound 26] | Salmonella typhi (ATCC 14028) | < 0% |

In the following, a different molecule is considered.
Per the record, COc1cc(OC)cc(C(=O)Nc2ccc(S(=O)(=O)Nc3nc(C)cc(C)n3)cc2)c1 [Compound 33] has inhibition at 200 µg/mL of < 0%

====

- Test system: Pseudomonas aeruginosa (POA 286)
- ASSAY_PROTOCOL: Microplate Alamar Blue Assay, Pseudomonas aeruginosa
- Assay type: cell-based
- CONDITION_PARAMETERS: Pseudomonas aeruginosa; 200 μg/mL; NI = No inhibition; read-out: Percentage (%) Inhibition, Pseudomonas aerugenosa
# inhibition at 200 µg/mL annotations

Per the record, Cc1cc(C)nc(NS(=O)(=O)c2ccc(NC(=O)c3ccc(F)cc3)cc2)n1 has inhibition at 200 µg/mL of < 0%

====

- Test system: Pseudomonas aeruginosa (POA 286)
- ASSAY_PROTOCOL: Microplate Alamar Blue Assay, Pseudomonas aeruginosa
- Assay type: cell-based
- CONDITION_PARAMETERS: Pseudomonas aeruginosa; 200 μg/mL; NI = No inhibition; read-out: Percentage (%) Inhibition, Pseudomonas aerugenosa
# inhibition at 200 µg/mL annotations

Past entries and their recorded results:
| COMPOUND | inhibition at 200 µg/mL |
| --- | --- |
| Cc1cc(C)nc(NS(=O)(=O)c2ccc(NC(=O)c3ccccc3F)cc2)n1 [Compound 17] | < 0% |
| Cc1cc(C)nc(NS(=O)(=O)c2ccc(NC(=O)c3ccc(Cl)cc3Cl)cc2)n1 [Compound 24] | < 0% |
| Cc1cc(C)nc(NS(=O)(=O)c2ccc(NC(=O)c3cccc(Br)c3)cc2)n1 [Compound 30] | < 0% |

Per the record, Cc1cc(C)nc(NS(=O)(=O)c2ccc(NC(=O)CCc3ccccc3)cc2)n1 [Compound 37] has inhibition at 200 µg/mL of < 0%

Per the record, Cc1cc(C)nc(NS(=O)(=O)c2ccc(NC(=O)c3ccc(C(F)(F)F)c(F)c3)cc2)n1 [Compound 9] has inhibition at 200 µg/mL of < 0%

Per the record, Cc1cc(C)nc(NS(=O)(=O)c2ccc(NC(=O)c3ccc(C(F)(F)F)cc3)cc2)n1 [Compound 19] has inhibition at 200 µg/mL of 2.37%

Per the record, CC1COc2c(N3CCN(C)CC3)c(F)cc3c(=O)c(C(=O)O)cn1c23 (stereo not drawn) [Ofloxacin, reference compound] has inhibition at 200 µg/mL of 94.1%

Per the record, Cc1cc(C)nc(NS(=O)(=O)c2ccc(NC(=O)c3cccc(CCl)c3)cc2)n1 [Compound 4] has inhibition at 200 µg/mL of < 0%
